Molecular target: TFAP2A (Homo sapiens, UniProt P05549)
Sequence (P05549 whole entry): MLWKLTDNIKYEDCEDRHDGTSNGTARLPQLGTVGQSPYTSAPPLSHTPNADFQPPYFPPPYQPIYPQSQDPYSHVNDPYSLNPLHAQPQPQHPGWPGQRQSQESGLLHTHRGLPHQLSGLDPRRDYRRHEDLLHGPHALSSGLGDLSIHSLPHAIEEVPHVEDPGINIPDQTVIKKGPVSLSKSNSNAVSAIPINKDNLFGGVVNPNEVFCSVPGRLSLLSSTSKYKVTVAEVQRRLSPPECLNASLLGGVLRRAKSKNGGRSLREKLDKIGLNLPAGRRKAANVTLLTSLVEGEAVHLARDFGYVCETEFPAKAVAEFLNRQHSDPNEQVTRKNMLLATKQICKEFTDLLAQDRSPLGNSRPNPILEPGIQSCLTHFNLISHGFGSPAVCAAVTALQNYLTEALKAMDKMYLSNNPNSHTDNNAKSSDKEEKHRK
Assay: pulldown; 150 mM NaCl, 50 mM Tris pH 8, 0.25% NP-40, 1 mM TCEP; 4 C, 2 h; 100 ug HeLa nuclear lysate
Conditions: protein: extract; label: 5' biotin (strand 1)
Kindly apply the following: class 1 if apparent K (half saturation) is less than 200 nM, class 0 in every other case.

[[record]]
binder = "TATA-box (dsDNA) DNA 1: GCGGCGCTCTATATAAGTGGGCAGTG DNA 2: CACTGCCCACTTATATAGAGCGCCGC"
class_label = "class 0"

[[record]]
binder = "TEAD (dsDNA) DNA 1: TCGGGACCCAGGCCTGGAATGTTTCCACC DNA 2: GGTGGAAACATTCCAGGCCTGGGTCCCGA"
class_label = "class 1"

[[record]]
binder = "AP-1 (dsDNA) DNA 1: AGTCGGCTAGCTGACTCAGGATGTCC DNA 2: GGACATCCTGAGTCAGCTAGCCGACT"
class_label = "class 0"

[[record]]
binder = "CTCF (dsDNA) DNA 1: TCAGAGTGGCGGCCAGCAGGGGGCGCCCTTGCCAGA DNA 2: TCTGGCAAGGGCGCCCCCTGCTGGCCGCCACTCTGA"
class_label = "class 1"

